test: qHTS for differential inhibitors of proliferation of Plasmodium falciparum line 7G8 (AID 1815); settings: Plasmodium falciparum 7G8 proliferation inhibition; series mostly up to 28.7 µM;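 note: parasite growth measured after three days of incubation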
Inconclusive results are not listed. Activity calls are given as the source filed them. Calls come from the whole dose curve; as a rule, active = well fitted curve in the direction sought with a large enough effect; inconclusive = small, poorly fitted or top-dose-only effect, or another doubt; inactive = no such curve, though single readings can be large or run the other way.
API: response.call in active, inactive

Use these answered entries as a reference point.
compound: CCN1CCC[C@H]1CNC(=O)c1cc(S(N)(=O)=O)ccc1OC
label-value: inactive

compound: O=C1NCC2(CCN(CCc3ccccc3)CC2)O1
label-value: inactive

compound: COc1ccccc1N1CCN(CCCNc2cc(=O)n(C)c(=O)n2C)CC1
label-value: inactive

compound: CCN(CC)CCNC(=O)c1ccc(N)cc1
label-value: inactive

compound: CC(=O)N[C@@H](CS)C(=O)O
label-value: inactive

compound: Cc1cccc(C)c1OCC(C)N (stereo not given)
label-value: active

compound: CC(=O)c1ccc(S(=O)(=O)NC(=O)NC2CCCCC2)cc1
label-value: inactive

compound: NC(N)=Nc1nc(CSCC/C(N)=N/S(N)(=O)=O)cs1
label-value: inactive

compound: CC(=O)CCCCn1c(=O)c2c(ncn2C)n(C)c1=O
label-value: inactive

compound: NCCS
label-value: inactive

[Q] So what was the verdict on CC1(C)CCC2=C(O1)c1ccccc1C(=O)C2=O in this test?
[A] active

[Q] Check CCN(CC)CCOC(=O)c1ccc(N)cc1 too.
[A] inactive

[Q] Check C[N+](C)(C)CCCCCC[N+](C)(C)C too.
[A] inactive

[Q] Check O=c1c(-c2ccc(O)cc2)coc2cc(O)ccc12 too.
[A] inactive

[Q] Check CCN(CC)C(=O)c1ccc(O)c(OC)c1 too.
[A] inactive

* * *

assay: Quantitative High-Throughput drug screen in 47 multiple myeloma cell lines against the NCATS MIPE library collection: OPM2_DSMZ cell viability assay (AID 1919872); conditions: OPM2 myeloma viability, CellTiter-Glo ATP luminescence, 48 h; series mostly up to 45.8 µM; note: nearly all actives have a fitted effect of over 30% in size
Results filed as inconclusive are left out. Calls of active or inactive are those of the source. Calls come from the whole dose curve; as a rule, active = well fitted cell-killing curve with a large enough effect; inconclusive = small, poorly fitted or top-dose-only effect, or effect the other way; inactive = no such curve, though single readings can be large or run the other way.
API: response.call in active, inactive

Use these answered entries as a reference point.
molecule: Cc1ccc(C(=O)Nc2cccc(C(F)(F)F)c2)cc1Nc1nc(-c2cccnc2)nc2c1cnn2C
label-value: active
//
molecule: C[C@]12CC[C@@H]3c4ccc(O)cc4CC[C@H]3[C@H]1C[C@@H](O)[C@H]2O
label-value: inactive
//
molecule: CC(C)(C)COc1ccc(-n2cc(C(=O)O)cn2)cc1C#N
label-value: inactive
//
molecule: CN1[C@@H]2CCC[C@@H]1CC(NC(=O)c1nn(C)c3ccccc13)C2 (stereo not given in full)
label-value: inactive

[Q] So what was the verdict on Nc1ncnc2ccccc12 in this test?
[A] inactive

[Q] Check COc1ccc(Cc2ccc(NC(N)=O)cc2)cc1-c1cccc(Cl)c1 too.
[A] inactive

[Q] Check c1ccc2c(Cc3c[nH]c4ccccc34)c[nH]c2c1 too.
[A] active

[Q] Check Clc1ccc(-c2nc3sccn3c2C=NOCc2ccc(Cl)c(Cl)c2)cc1 too.
[A] inactive

[Q] Check CC(C)C(C)C=CC(C)C1CCC2C3=CC=C4CC(O)CCC4(C)C3CCC21C (stereo not given) too.
[A] inactive

[Q] Check COc1ccc2c(Oc3ccc(NC(=O)c4c(C)n(CC(C)(C)O)n(-c5ccccc5)c4=O)nc3)ccnc2c1 too.
[A] inactive

// provenance: PubChem BioAssay (NCATS)
